system: NCI-H23 lung; experiment: NCI tumour cell line growth inhibition, 48 h
In this section, each of the molecules is paired with its reported TGI.

CCOc1ccc(N/C(=C(/C(Cl)=C(/Cl)N2CCCCC2)[N+](=O)[O-])n2nnc3ccccc32)cc1    29.7 µM
COc1cc(-c2cc(=O)c3c(O)c(CC=C(C)C)c(O)cc3o2)ccc1O    > 50 µM

Tell me the measured TGI of COc1ccc(/C(Cl)=C(\C=N/O)c2ccc(OC)c(OC)c2)cc1OC , please.
> 100 µM

// query TGI value for entry CC1(C)OC(=O)N(c2ccccc2)C12C=Cc1cccc([N+](=O)[O-])c1O2 (stereo not given)
> 100 µM

// query TGI value for entry N#CC(=N)c1ncn(-c2ccc(N)cc2)c1N
> 100 µM

====

In this section, each of the compounds is paired with its reported TGI.
test system: MCF7 breast; test: NCI tumour cell line growth inhibition, 48 h
Use µM as the unit, but write only the number.

Example entries and their recorded answers appear below.
CCN(CC)CC(O)CNc1c2ccc([N+](=O)[O-])cc2nc2cc(OC)c(OC)cc12 (centres undefined)    0.761
COc1cc(NCCC2CCCCN2)c2ncccc2c1 (centres undefined)    1.96
CCC(=C/[C@H](C)C/C=C/C(C)=C/[C@@H](C)C(=O)[C@@H](C)[C@H](O)[C@@H](C)CC)/C=C/[C@@H]1OC(=O)C=C[C@H]1C    1.23

// moving on: another record for TGI
Can you share its TGI? I mean this compound: CCOC(=O)c1cc2c(cc1Cl)SC(N(c1ccc(OC)cc1)S(=O)(=O)c1ccc(Cl)cc1)=NS2(=O)=O
68.2

====

Quick reference for GI50 among some compounds
system: SF-268 CNS; assay: NCI tumour cell line growth inhibition, 48 h

Observe how each entry below is paired with its result.
CC(=O)C1=C(O)C=C2Oc3c(C(=O)/C=C/c4c(Cl)cccc4Cl)c(O)c(C)c(O)c3[C@]2(C)C1=O    0.856 µM
O=C(Cc1ccc(F)c(F)c1)Nc1cc(C2(C(F)(F)F)CC2)nn1Cc1ccccc1    4.27 µM
O=C(NCCCO)c1cc(Cl)ccc1O    6.52 µM
Cc1nnc(-c2cccc(-c3ccc(C(=O)NCC4CC4)cc3)c2)o1    > 25 µM
O=C(c1ccccc1)C(CN1CCCCC1)c1ccccc1 (configuration not stated)    3.98 µM
[N-]=[N+]=NCCCCCC(=O)OC(C(=O)c1ccccc1)c1cccc(OCC(=O)NCCOCCOCCNC(=O)CCCC[C@@H]2SC[C@@H]3NC(=O)N[C@@H]32)c1 (some centres not stated)    > 100 µM

Quick one: GI50 of CO/N=C(\C)c1ccc(Nc2cc(-c3ccccc3)nc3ccc(OC)cc23)cc1 ?
10.2 µM

====

tested on: CCRF-CEM leukemia; experiment: NCI tumour cell line growth inhibition, 48 h
endpoint: TGI

CCCCCCCCCCCCCCCCCCNC(=S)/N=C\C1=C(O)c2ccccc2C1=O    21.5 µM
COc1cc(-c2cc(=O)c3c(O)c(CC=C(C)C)c(O)cc3o2)ccc1O    > 50 µM
O=c1c2cc3c(=O)n4c(cc(-c5ccccc5)c5cc(Cl)ccc54)nc3cc2nc2cc(-c3ccccc3)c3cc(Cl)ccc3n12    > 100 µM
O=C(O)CCSCc1ccccc1    > 100 µM

With those in mind, consider the next compound.
Entry Clc1ccc(-c2c3c(nn2-c2ccccn2)CCc2ccccc2-3)cc1Cl : reported TGI = ?
> 100 µM

====

test system: COLO 205 colon; experiment: NCI tumour cell line growth inhibition, 48 h
Catalogue of TGI values

Consider the reported TGI for these molecules:
COc1cc(NCCC2CCCCN2)c2ncccc2c1 (stereo unspecified)    28.6 µM
CO/N=C(\C)c1ccc(Nc2cc(-c3ccccc3)nc3ccc(OC)cc23)cc1    > 100 µM
O=C(CN1CCOCC1)c1ccc2c(c1)oc(=O)n2CCN1CCOCC1    > 100 µM
Cc1cccc2c1c(=O)c1c(O)c3c(cc1n2C)OC(C)(C)C=C3    > 10 µM

Form field: TGI recorded for [N-]=[N+]=NCCCCCC(=O)OC(C(=O)c1ccccc1)c1cccc(OCC(=O)NCCOCCOCCNC(=O)CCCC[C@@H]2SC[C@@H]3NC(=O)N[C@@H]32)c1 (stereo partly specified) with COLO 205 colon (enter value)
> 100 µM

Requested read-out TGI, target or system COLO 205 colon, entry CN(C)CCn1c(=O)c2ccc(NCCN3CCNCC3)c3c(=O)c4ccccc4n(c1=O)c23
13 µM

Request body: readout TGI, system COLO 205 colon, query Cn1c2c(c3ccc([N+](=O)[O-])cc3c1=O)C(=O)c1ccccc1-2 . Return the value.
> 100 µM

Entry COC(O)C(=O)c1ccc2c(c1)CC1(C2)Cc2cc3c(cc2C1=O)CCC3 (stereo unspecified) , system COLO 205 colon: what TGI was measured?
47.2 µM

I'm curious: which TGI was measured for CC(=O)c1c(C)[nH]c(-c2nc3ccc(N4CCN(C)CC4)cc3[nH]2)c1-c1ccc(N(C)C)cc1 tested on COLO 205 colon?
14 µM

Write down the reported TGI of CN(C)CCNC(=O)c1cccc(N(C)C(=O)c2ccccc2)c1[N+](=O)[O-] , test system: COLO 205 colon.
> 10 µM

Recall the recorded TGI for COC1C(O)C(n2ncc3c(SC)nc(SC)nc32)OC1C(O)CO (stereo unspecified) with COLO 205 colon and state it.
> 100 µM

COLO 205 colon / TGI / CC1=C(O)C(=O)C2C(=O)C1C1Cc3ccccc3C21 (stereo unspecified) : value?
> 100 µM

Observed TGI on COLO 205 colon for O=C1C=CC(=Nc2cc(Br)c(O)c(Br)c2)C=C1 , please.
52 µM

Param readout = TGI; param system = COLO 205 colon; param query = CC(=O)C1C(c2ccc(N(C)C)cc2)c2cc3c(cc2OC1(C)O)OCO3 (stereo unspecified) ; response: value
> 100 µM

====

tested on: HCT-15 colon; assay: NCI tumour cell line growth inhibition, 48 h
endpoint: TGI (µM)
Only the number, expressed in µM, is required.

Enter reported TGI observed with HCT-15 colon for O=C(COc1cc(O)c2c(=O)cc(-c3ccccc3)oc2c1)Nc1ccccc1C(F)(F)F
21.1

Request - read-out TGI | tested on HCT-15 colon | compound CC(=O)C1=C(O)C=C2Oc3c(C(=O)/C=C/c4c(Cl)cccc4Cl)c(O)c(C)c(O)c3[C@]2(C)C1=O
2.94

====

GI50 values for the compounds below.
test system: RXF 393 renal; assay: NCI tumour cell line growth inhibition, 48 h

Cc1nnc(-c2cccc(-c3ccc(C(=O)NCC4CC4)cc3)c2)o1    > 25 µM
O=C(c1ccccc1)C1OC1c1ccc([N+](=O)[O-])cc1 (stereo not drawn)    6.38 µM

# get_value(readout='GI50', item= O=C(Nc1ccncc1)C(=O)c1cn(S(=O)(=O)c2ccc(Cl)cc2)c2ccccc12 )
3.71 µM

====

Recorded TGI values for a group of molecules are listed next.
system: HCC-2998 colon; assay: NCI tumour cell line growth inhibition, 48 h

Below, 8 molecules whose answers are already recorded.
CN(Cc1ccccc1)c1ccc(CO)c(Cl)c1    51.9 µM
O=C(Nc1ccc(-n2ccc3c(NC(=O)c4ccccc4)ncnc32)cc1)Nc1ccc(Cl)c(Cl)c1    20.7 µM
CC(=O)C1=C(O)C=C2Oc3c(C(=O)/C=C/c4c(Cl)cccc4Cl)c(O)c(C)c(O)c3[C@]2(C)C1=O    5.26 µM
CC12CCC3(OCCO3)C(OC(=O)c3ccccc3)=C1CCC21OCCO1 (configuration not stated)    > 100 µM
[N-]=[N+]=NC(c1cn(C2CC(O)C(CO)O2)c(=O)[nH]c1=O)C(Cl)I (configuration not stated)    > 100 µM
C/C(CC(=O)Nc1ccc(C)c(C)c1)=N\NC(N)=O    > 100 µM
COC(=O)C1(C#N)C(C)(C)N=C(c2ccccc2)C12CCCCC2 (configuration not stated)    > 100 µM
CCN(CC)CCCNCc1cc(-c2ccccc2)nc2ccccc12    31.1 µM

Find the recorded TGI belonging to N#CC(Cc1ccccc1)N(CCC1=CCCCC1)Cc1ccccc1 (configuration not stated) and report it.
> 100 µM

Param item = Cn1cnc([N+](=O)[O-])c1Sc1nc(N)nc2c1ncn2C1CC(O)C(CO)O1 (configuration not stated) ; retrieve measured TGI.
> 100 µM

Quick one: TGI of Cn1c2c(c3ccc([N+](=O)[O-])cc3c1=O)C(=O)c1ccccc1-2 ?
> 100 µM

Which measured TGI value corresponds to O=c1c(Br)cc2nc3ccccc3sc-2c1Br ?
> 100 µM

Give the measured TGI of O=C(c1ccccc1)C(CN1CCCCC1)c1ccccc1 (configuration not stated) .
12.3 µM

Which TGI value is on record for CC1=C(O)C(=O)C2C(=O)C1C1Cc3ccccc3C21 (configuration not stated) ?
> 100 µM
